- protocol_summary: Toxicity in rat
- Format: organism-based
- recorded_conditions: in vivo
Lab note: compare LD50 with 500 mg/kg, writing t if less and f if equal or more.

1) COC(=O)/C(C(=O)Nc1nccs1)=C1/SC(C(C)=O)=C(C)N1c1ccccc1 ... f
2) O=C(CC(=O)Nc1nccs1)NNC(=S)[S-].[K+] ... f
3) COC(=O)/C(C(=O)Nc1nccs1)=C1/SC=C(C)N1c1ccccc1 ... t
4) COC(=O)/C(C(=O)Nc1nccs1)=C1/SC(C(C)=O)=NN1c1ccc(S(N)(=O)=O)cc1 ... t
5) O=C(CC(=O)NN1C(=O)c2ccc3c4c(ccc(c24)C1=O)C(=O)N(NC(=O)CC(=O)Nc1nccs1)C3=O)Nc1nccs1 ... t
6) COC(=O)/C(C(=O)Nc1nccs1)=C1/SC=C(c2ccccc2)N1c1ccccc1 ... f

Item `O=C(CC(=O)NN1C(=O)c2c(Cl)c(Cl)c(Cl)c(Cl)c2C1=O)Nc1nccs1` : LD50 beneath 500 mg/kg, strictly?
t

LD50 under 500 mg/kg? Item: `COC(=O)/C(C(=O)Nc1nccs1)=C(/S)Nc1ccccc1`
f

Strictly below 500 mg/kg in LD50? `CCOC(=O)c1nn(-c2ccc(Br)cc2)/c(=N/NC(=O)CC(=O)Nc2nccs2)s1`
t
